- Target System: T1, D1 domain of human IL-2Rγ extracellular domain expressed with a C-terminal myc-myc-hexahistidine tag (human)
- T1 construct: also called human IL2Rγ domain 1
- T1 chain: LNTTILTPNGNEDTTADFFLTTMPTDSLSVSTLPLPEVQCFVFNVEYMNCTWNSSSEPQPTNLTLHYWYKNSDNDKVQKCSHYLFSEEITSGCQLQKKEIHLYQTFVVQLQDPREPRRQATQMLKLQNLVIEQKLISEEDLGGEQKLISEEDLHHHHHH
- Test Description: SPR, mAb captured on anti-hFc, 37 C
- Protocol: Equilibrium dissociation constants (KD values) for IL-2Rγ binding to purified anti-IL2Rγ monoclonal antibodies were determined using a Biacore 4000 instrument equipped with a real-time surface plasmon resonance biosensor. […] The dissociation of monoclonal antibody bound IL2Rγ reagents were monitored for 8-10 minutes in HBS-ET running buffer. […] Binding dissociation equilibrium constants (KD) and dissociative half-lives (t_{1/2}) were calculated from the kinetic rate constants as: […]
Recorded Metric: 100 nM Ag Bound (RU)
Output spec: scalar in RU, unitless text.

Illustrative cases are given below, each with its answer.
# Binder, 100 nM Ag Bound / RU
rows = [
    ("H4H12858P (antibody, human IgG4 S228P, kappa, V domains shown, human IgG4; also called REGN9433) VH: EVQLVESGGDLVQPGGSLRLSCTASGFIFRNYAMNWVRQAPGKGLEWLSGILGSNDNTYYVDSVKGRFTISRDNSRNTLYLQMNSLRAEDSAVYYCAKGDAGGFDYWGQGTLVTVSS VL: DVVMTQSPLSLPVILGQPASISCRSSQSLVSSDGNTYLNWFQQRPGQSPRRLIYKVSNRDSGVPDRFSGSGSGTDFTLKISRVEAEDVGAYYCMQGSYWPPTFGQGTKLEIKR", 1),
    ("H4H12874P (antibody, human IgG4 S228P, kappa, V domains shown, human IgG4) VH: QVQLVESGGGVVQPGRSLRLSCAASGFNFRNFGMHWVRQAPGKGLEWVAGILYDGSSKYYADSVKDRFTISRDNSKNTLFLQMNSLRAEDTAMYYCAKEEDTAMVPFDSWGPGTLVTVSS VL: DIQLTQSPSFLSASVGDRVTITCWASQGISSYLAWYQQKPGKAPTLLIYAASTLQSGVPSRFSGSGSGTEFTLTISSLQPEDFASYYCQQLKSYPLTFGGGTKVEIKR", 1),
]

Quick one: 100 nM Ag Bound for H4H13541P (antibody, human IgG4 S228P, kappa, V domains shown, human IgG4) VH: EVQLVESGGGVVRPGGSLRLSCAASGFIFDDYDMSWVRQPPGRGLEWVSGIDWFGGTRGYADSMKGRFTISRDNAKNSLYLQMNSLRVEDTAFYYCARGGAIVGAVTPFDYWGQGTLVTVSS VL: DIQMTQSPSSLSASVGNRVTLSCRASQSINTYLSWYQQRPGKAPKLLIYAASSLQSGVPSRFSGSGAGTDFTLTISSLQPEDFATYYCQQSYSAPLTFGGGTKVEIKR ?
2
